assay: Crossover pharmacokinetic study in rats after IV or oral MPI8 sulfonate; type: in vivo, Sprague-Dawley rats; conditions: male, Sprague-Dawley, in vivo, iv; rat; i.v. 5 mg/kg MPI8 sulfonate; NCA
reported.property: half-life

>  <compound>
CC(OC(C)(C)C)C(NC(=O)OCc1ccccc1)C(=O)NC(CC1CCCCC1)C(=O)NC(C=O)CC1CCNC1=O (stereo not shown)

>  <assay.value>
2.75 h

$$$$

---

assay: Crossover pharmacokinetic study in rats after IV or oral MPI8 sulfonate; assay type: in vivo, Sprague-Dawley rats; settings: male, Sprague-Dawley, in vivo, iv; rat; i.v. 5 mg/kg MPI8 sulfonate; 10 h post-dose; read-out: Mean plasma concentration

>  <molecule>
CC(OC(C)(C)C)C(NC(=O)OCc1ccccc1)C(=O)NC(CC1CCCCC1)C(=O)NC(C=O)CC1CCNC1=O (stereo not shown)

>  <concentration at 10 h [ng/mL]>
1.24

$$$$
